meta.source: ChEMBL document CHEMBL3112439

species on record: Mus musculus; test: Inhibition of ACSL in mouse solubilized bEND.3 cells using [14C]-palmitic acid as substrate assessed as decrease in radioactivity in aqueous layer at 15 uM after 2 hrs by liquid scintillation spectrometric analysis
The source made the active and inactive calls. The calls are words filed in the database; no cut-off is given here.
Possible outcomes: yes = active, no = inactive

smi | assigned class
C=CCCCCCCCCCNO | yes
C=CCCCCCCCCCNc1ccc(C(=O)O)c(O)c1 | yes
CCC/C=C/C/C=C/CN(O)/N=N/c1ccc(C(=O)O)cc1 | yes
C=CCCCCCCCCCNc1ccc(C(=O)O)cc1 | yes
CCC/C=C/C/C=C/C=C/CNc1ccc(C(=O)O)cc1 | yes
CCC/C=C/C/C=C/C=N/N1CCCS1(=O)=O | no
